B1: tRNA (parent)
chain: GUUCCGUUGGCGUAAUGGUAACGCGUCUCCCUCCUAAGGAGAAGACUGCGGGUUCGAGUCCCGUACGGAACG

# Variants of: B1
# TEST_SUMMARY: yeast fitness relative to wild type (ratio to wild type); higher = fitter; tRNA-Arg(CCU), competitive growth, 37 C, YPD
Variants at the floor of the assay were thinned out.
Task for the reader: assign each of the following variants its reported yeast fitness.
Give bare numbers.

These solved cases illustrate the format of a correct answer.
C22G A45C :: 0.583
U13G C30U U32C :: 0.686
C5G C11G A40G :: 0.556
U16A A37U :: 0.739
A36U G39A :: 0.657

Now let's try a different one.
Query string: Would you kindly share the measured yeast fitness for U28C U64C ?
Result string: 0.877
